Tested on: NUGC3 cells (p53 Y220C)
ASSAY_NOTES: Cell Proliferation Assay (CellTiter-Glo), NUGC3 p53 Y220C
Format: cell-based
CONDITIONS: Homo sapiens, NUGC-3, 120 h, 5 days, read-out: CTG NUGC3 P53 Y220C IC50
EXPERIMENTAL_ENDPOINT: IC50

Example results:
GIVEN_SMILES	EXPERIMENTAL_ENDPOINT	READING
CN1CC[C@@H](Nc2cccn3c(SC(F)(F)F)c(-c4noc([C@@H](CO)NC(=O)C5CC5)n4)cc23)[C@@H](F)C1	IC50	≥ 3000 nM
CN1CC[C@@H](Nc2cccn3c(SC(F)(F)F)c(-c4noc(CNC(=O)C#CC5(C)CC5)n4)cc23)[C@@H](F)C1	IC50	< 750 nM

Now look at this one.
Prompt line: What IC50 value was documented for this compound, `CN1CC[C@@H](Nc2cccn3c(SC(F)(F)F)c(-c4noc(CNC(=O)c5sccc5N)n4)cc23)[C@@H](F)C1` ?
Response line: < 750 nM

====

Below, each entry is listed with its recorded Kd.
TGT: p53 Y220C mutant protein (amino acid residues 94-293) (Homo sapiens, UniProt P04637, Y220C)
Construct: p53 Y220C mutant protein (amino acid residues 94-293)
ASSAY_NOTES: Surface Plasmon Resonance (SPR) assay, p53 Y220C Kd_kinetic
CONDITIONS: multi-cycle kinetics, 16 or 20 °C, pH 7.5, 1:1 binding model

Previously resolved entries follow.
MOLECULE	Kd
CN1CC[C@@H](Nc2cccn3c(SC(F)(F)F)c(-c4noc(CNC(=O)c5sccc5N)n4)cc23)[C@@H](F)C1 [Example 33]	< 10 nM
CN1CC[C@@H](Nc2cccn3c(SC(F)(F)F)c(-c4cc(CNC(=O)c5cnn(C(C)(C)C)c5)on4)cc23)[C@@H](F)C1 [Example 88]	10 to 100 nM

Kindly review the next molecule as well.
Prompt line: Reported Kd for CN1CC[C@@H](Nc2cccn3c(SC(F)(F)F)c(-c4noc([C@H](CO)NC(=O)C5CC5)n4)cc23)[C@@H](F)C1 [Example 55] : what is it?
Response line: 10 to 100 nM

====

TGT: p53 Y220C (Homo sapiens, UniProt P04637, Y220C)
ASSAY_NOTES: Luciferase Reporter Assay, p53 Y220C (NCIH1299 cells with inducible p53 Y220C and p53 response element-luciferase)
Format: cell-based
CONDITIONS: 6 hour compound treatment, read-out: Luc P53 Y220C AC50
EXPERIMENTAL_ENDPOINT: AC50

Examples with answers:
COMPOUND	EXPERIMENTAL_ENDPOINT	READING
CN1CC[C@@H](Nc2cccn3c(SC(F)(F)F)c(-c4noc(CNC(=O)C5COC5)n4)cc23)[C@@H](F)C1 [Example 25]	AC50	1500 to 3000 nM
CN1CC[C@@H](Nc2cccn3c(SC(F)(F)F)c(-c4noc(CNC(=O)c5ccc6c(c5)NC(=O)C6)n4)cc23)[C@@H](F)C1 [Example 16]	AC50	750 to 1500 nM
CN1CC[C@@H](Nc2cccn3c(SC(F)(F)F)c(-c4noc([C@H](CO)NC(=O)C5CC5)n4)cc23)[C@@H](F)C1 [Example 55]	AC50	≥ 3000 nM
COCC1(n2ccc(C(=O)NCc3nc(-c4cc5c(N[C@@H]6CCN(C)C[C@@H]6F)cccn5c4SC(F)(F)F)no3)c2)CC1 [Example 97]	AC50	< 750 nM
CN1CC[C@@H](Nc2cccn3c(SC(F)(F)F)c(-c4noc(CNC(=O)c5cnc[nH]5)n4)cc23)[C@@H](F)C1 [Example 73]	AC50	< 750 nM

Prompt line: # get_value(readout='AC50', item= Cc1ccsc1C(=O)NCc1nc(-c2cc3c(N[C@@H]4CCN(C)C[C@@H]4F)cccn3c2SC(F)(F)F)no1 [Example 30] )
Response line: 750 to 1500 nM

Prompt line: Consider the compound CN1CC[C@@H](Nc2cccn3c(SC(F)(F)F)c(-c4noc(CNC(=O)C(C)(C)O)n4)cc23)[C@@H](F)C1 [Example 49] and give its measured AC50.
Response line: 1500 to 3000 nM

Prompt line: Quick one: AC50 for CN1CC[C@@H](Nc2cccn3c(SC(F)(F)F)c(-c4noc(CNC(=O)c5cnn[nH]5)n4)cc23)[C@@H](F)C1 [Example 80] ?
Response line: 1500 to 3000 nM

Prompt line: AC50 lookup needed for CN1CC[C@@H](Nc2cccn3c(SC(F)(F)F)c(-c4cc(CNC(=O)c5cnc(N(C)C)s5)no4)cc23)[C@@H](F)C1 [Example 92] , thanks.
Response line: < 750 nM
